Measured MIC of peptidomimetics of individual entries
Tested on: S. aureus 04
Conditions: S. aureus 004; MHB (melimine/Mel4 with 0.2% BSA, 0.01% acetic acid); mean MIC
Square brackets hold non-standard residues; d marks the D form. Peptide text beside a SMILES is read from it. Nspe(4-Br) = C[C@H](NCC(=O)O)c1ccc(Br)cc1; N(tridecyl)Gly = CCCCCCCCCCCCCNCC(=O)O; Nspe = C[C@H](NCC(=O)O)c1ccccc1; NDecylGly = CCCCCCCCCCNCC(=O)O; Nlys = NCCCCNCC(=O)O

Please review the entries below; each comes with its answer.
Compound	MIC of peptidomimetics
C[C@@H](c1ccc(Br)cc1)N(CC(=O)N(CCCCN)CC(=O)N(CC(=O)N(CC(=O)N(CCCCN)CC(N)=O)[C@@H](C)c1ccc(Br)cc1)[C@@H](C)c1ccc(Br)cc1)C(=O)CN(C(=O)CNCCCCN)[C@@H](C)c1ccc(Br)cc1 [TM14] (H-[Nlys][Nspe(4-Br)][Nspe(4-Br)][Nlys][Nspe(4-Br)][Nspe(4-Br)][Nlys]-NH2)	7.8 mg/L
CCCCCCCCCCCCCNCC(=O)N(CCCCN)CC(=O)N(CC(=O)N(CC(=O)N(CCCCN)CC(=O)N(CCCCN)CC(N)=O)[C@@H](C)c1ccccc1)[C@@H](C)c1ccccc1 [TM15] (H-[N(tridecyl)Gly][Nlys][Nspe][Nspe][Nlys][Nlys]-NH2)	7.8 mg/L
C[C@@H](c1ccccc1)N(CC(N)=O)C(=O)CN(CCCCN)C(=O)CN(C(=O)CN(C(=O)CN(CCCCN)C(=O)CN(C(=O)CN(C(=O)CN(CCCCN)C(=O)CN(C(=O)CN(C(=O)CNCCCCN)[C@@H](C)c1ccccc1)[C@@H](C)c1ccccc1)[C@@H](C)c1ccccc1)[C@@H](C)c1ccccc1)[C@@H](C)c1ccccc1)[C@@H](C)c1ccccc1 [TM6] (H-[Nlys][Nspe][Nspe][Nlys][Nspe][Nspe][Nlys][Nspe][Nspe][Nlys][Nspe]-NH2)	7.8 mg/L
C[C@@H](c1ccc(Br)cc1)N(CC(=O)N(CCCCN)CC(=O)N(CC(=O)N(CC(=O)N(CCCCN)CC(N)=O)[C@@H](C)c1ccc(Br)cc1)[C@@H](C)c1ccccc1)C(=O)CN(C(=O)CNCCCCN)[C@@H](C)c1ccccc1 [TM12] (H-[Nlys][Nspe][Nspe(4-Br)][Nlys][Nspe][Nspe(4-Br)][Nlys]-NH2)	3.9 mg/L

# MIC of peptidomimetics lookup, item CCCCCCCCCCNCC(=O)N(CCCCN)CC(=O)N(CC(=O)N(CC(=O)N(CCCCN)CC(=O)N(CC(=O)N(CC(N)=O)[C@@H](C)c1ccccc1)[C@@H](C)c1ccccc1)[C@@H](C)c1ccccc1)[C@@H](C)c1ccccc1 [TM8] (H-[NDecylGly][Nlys][Nspe][Nspe][Nlys][Nspe][Nspe]-NH2)
3.9 mg/L
